- Procedure text: green-channel fluorescence of compounds in IgMXP3 cells – cell-based, 488/530 nm, flow cytometry, artefact control for ABC transporter inhibitor project, confirmation (AID 1480)
- Assay setup: compound autofluorescence 488/530 nm, at 6.6 µM, hits give high values
Some of the results follow.
So basically: fluorescence at 30 or higher? That is condition met. Lower than 30? That is condition not met.

Compound	Class name
C/C(=N\Nc1ncc(Cl)cc1Cl)c1ccc(S(=O)(=O)NCc2ccco2)cc1	condition not met
Cc1ccc(OCC(O)CN2CCN(CC(O)COc3ccc(C)cc3Cl)CC2)c(Cl)c1 (configuration not stated)	condition met
CCN1/C(=C/c2ccc3ccc(C)cc3[n+]2CC)Sc2ccccc21	condition met
COc1ccc(-n2c(C)cc(C(=O)COC(=O)c3cc(OC)c(OC)cc3NC(=O)c3cccs3)c2C)cc1	condition not met
C=CCn1c(SCCOc2ccc(OC)cc2)nnc1C(NC(=O)c1ccc(OC)cc1)C(C)C (configuration not stated)	condition met
CCOCC(=O)Nc1sc2c(c1C(=O)OCC)CCCC2	condition not met

Kindly determine if fluorescence recorded for "COc1cccc(NC(=O)c2ccc(Cn3cc([N+](=O)[O-])cn3)o2)c1" is above or exactly 30.
condition not met
